# Target Or System: eOD-GT8 (engineered outer domain germline-targeting version 8), monomer (HIV-1 gp120 engineered outer domain, …)
Reported Metric: binding result

Binder	Reported Metric	Reported
G001_gp1_V07_VRC01c_2021-0048 (antibody, V domains shown) VH: RVQLVQSGAEVKKPGASVKVSCKASGYTFTGYYMHWVRQAPGQGLEWMGWINPNSGGTNYAQKFQGRVTMTRATSISTAYMELSRLRFDDTAVYYCARGGSRGWSLDYWGQGTLVTVSS VL: DIQMTQSPSSLSASVGDRVTITCQASQDISNYLNWYQQKLGKAPKLLIYDASNLETGVPSRFSGSGSGTDFSLTISSLQPEDIATYYCQQYETFGQGTKLEIK	binding result	binds
G001_gp1_V08_VRC01c_130 (antibody, V domains shown) VH: QVQLVQSGAEVKKPGASVKVSCKASGYTFTGYYMHWVRQAPGQGLEWLGWINPNSGGTNYAQKFQGWVTMTRDTSISTAYMELSRLRSDDTAVYYCATVAGYSSSWQRGWAFDIWGQGTMVTVSS VL: EIVLTQSPGTLSLSPGEGATLSCRASQSVSSSSLAWYQQKPGQAPRLLIYGASSRATGIPDRFSGSGSGTDFTLTISRLEPEDFAVYYCQLYETFGQGTKVEIK	binding result	binds

Origin of values: paper PMC12377726
